Target: T1, 14-3-3η, full length, N-terminally His6-tagged (human, UniProt Q04917 1-246)
T1 construct: 14-3-3 eta, human, full length; also called His6-14-3-3η; source: E. coli BL21(DE3), purified (HisTrap, SEC); also in E. coli cell lysate (pulldown); not shown: His6, N-terminal, kept
T1 sequence (looked up): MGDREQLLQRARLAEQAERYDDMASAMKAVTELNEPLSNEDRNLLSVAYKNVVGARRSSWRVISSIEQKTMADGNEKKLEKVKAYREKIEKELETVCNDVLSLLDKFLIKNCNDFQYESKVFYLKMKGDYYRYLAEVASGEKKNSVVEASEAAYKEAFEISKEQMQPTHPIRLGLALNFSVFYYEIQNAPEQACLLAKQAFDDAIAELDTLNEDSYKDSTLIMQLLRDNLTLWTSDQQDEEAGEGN
Test: fluorescence polarisation; direct binding: dilution series of 14-3-3 protein added to FITC-labeled peptide (30 nM stock, 5 µl in 15 µl); 10 mM HEPES pH 7.4, 150 mM NaCl, 2 mM DTT, 0.01% Tween 20; 60 min at room temperature, read at 25 °C; four-parameter fit
Conditions: both partners purified
Primed or numbered codes have the meaning given here. Where no end group is shown, it is not given here. [ ]: non-standard residue; d: D form. The star is where a group is joined. FITC = O=C1OC2(c3ccc(O)cc3Oc3cc(O)ccc32)c2ccc(NC(=S)*)cc21; pT = C[C@@H](OP(=O)(O)O)[C@H](N)C(=O)O; pS = N[C@@H](COP(=O)(O)O)C(=O)O; PEG2″ = not defined here
readout label: Kd

Exam item: State, in one line, measured Kd of TTNPASATT (also: one phosphorylated Ser/Thr within Ser61–Thr64) [peptide 14, monophosphorylated APN 9-mer (noncanonical site of peptide 10)]
Marked response: > 40 µM

Exam item: State, in one line, measured Kd of {FITC-PEG2″}-NKNAN[pS]SPV (aminopeptidase N (APN, CD13), human, residues 38-46; also called site 1; source: synthetic peptide (Fmoc SPPS, HPLC purified)) [FITC-labeled peptide 1, APN 38–46 pSer43]
Marked response: 0.32 µM

Exam item: State, in one line, measured Kd of PASATTLDQ (also: one phosphorylated Ser/Thr within Ser61–Thr64) [peptide 16, monophosphorylated APN 9-mer (noncanonical site of peptide 12)]
Marked response: > 40 µM

Exam item: State, in one line, measured Kd of NPASA[pT]TLD [peptide 15, monophosphorylated APN 9-mer pThr63 (site 2)]
Marked response: > 40 µM
